tested on: HeLa; experiment: SRB colorimetric assay of cell growth and viability, HeLa; format: cell-based, human; details: HELA; 48 hours exposure
Where a SMILES comes first, the peptide text is derived from it. Bridges are numbered along the chain shown (N, C = ends). [ ]: non-standard residue; d: D form. The star is where a group is joined. d(aIle) = CC[C@H](C)[C@@H](N)C(=O)O; d(aThr) = C[C@@H](O)[C@@H](N)C(=O)O; Hexanoyl(5-Me) = CC(C)CCCC(=O)*; Orn = NCCC[C@H](N)C(=O)O; Dhb = C/C=C(\N)C(=O)O
quantity_kind: TGI HELA (Molar)
Numbers only, in Molar.

The measured TGI HELA associated with C/C=C1\NC(=O)[C@H](Cc2ccccc2)NC(=O)[C@@H](C(C)C)NC(=O)[C@@H]([C@@H](C)CC)NC(=O)[C@H](NC(=O)[C@H](NC(=O)[C@H](CCCN)NC(=O)[C@H]2CCCN2C(=O)[C@H](NC(=O)[C@@H](NC(=O)[C@H](CCCN)NC(=O)[C@H](NC(=O)CCCC(C)C)C(C)C)C(C)C)C(C)C)[C@@H](C)CC)[C@@H](C)OC(=O)[C@H](C(C)C)NC1=O [Compound 116, [Orn^12]-KF] ({Hexanoyl(5-Me)}-[dV][Orn]V[dV][dP][Orn][d(aIle)][d(aThr)][d(aIle)][dV]F[Dhb]V; ester 8-C) reads 3.35E−06
